System: zebrafish larvae liver
Assay: ZeGlobalTox hepatotoxicity: Oil Red O staining (steatosis and yolk lipid accumulation)
Settings: 132 hpf, 36 h drug incubation at NOEC (EtOH 2%, MPTP 100 µM), DMSO 24.44%
Structures can show the parent of a compound that is named as a salt.
measured-attribute: Percentage of larvae presenting steatosis (%)

> print(dat)
                                   molecule  recorded.result
1                           NNC(=O)c1ccncc1               60
2                      CN1CC=C(c2ccccc2)CC1               50
3  CNCC(O)c1ccc(O)c(O)c1.Cl (racemic) [(±)-Epinephrine HCL, (±)-epinephrine hydrochloride]               80
4  C[C@]12CC[C@H](O)C[C@H]1CC[C@@H]1[C@@H]2C[C@@H](O)[C@]2(C)[C@@H](C3=CC(=O)OC3)CC[C@]12O               55
5  CC(C)(C)NC(=O)[C@H]1CC[C@H]2[C@@H]3CC[C@H]4NC(=O)C=C[C@]4(C)[C@H]3CC[C@]12C [Finasteride, finasteride]               65
6  CN1CCN(CCCN2c3ccccc3Sc3ccc(C(F)(F)F)cc32)CC1 [Trifluoperazine HCL, trifluoperazine hydrochloride]               85
